# System: RPMI-8226 leukemia
# ASSAY METHOD TEXT: NCI tumour cell line growth inhibition, 48 h; in the data active = GI50 below about 0.43 µM; inactive = the rest
Outcome codes: active, inactive

- TEST SMILES: "Cn1c2ccccc2c2nnc(NNCc3ccccn3)nc21"
  CAT: "inactive"
- TEST SMILES: "CN(C)c1ccc(C(=C2C=CC(=[N+](C)C)C=C2)c2ccccc2Cl)cc1"
  CAT: "active"
- TEST SMILES: "CC[C@H]1C=CCC[C@@]2(C[C@@H]3CC[C@@H]4[C@H](C(=O)OCCCCCCCCCCCCCCCC(=O)N(CCCNC(C)=O)C[C@H](CCNC(C)=O)OC(C)=O)[C@]5(CCC[C@@H](C)O5)NC(=[N+]34)N2)O1"
  CAT: "active"
- TEST SMILES: "CC1(C)CC(=O)c2c(ccc(C(=O)C[C@@H](N)CO)c2N)O1"
  CAT: "inactive"
- TEST SMILES: "Cc1cc2c(cc1C)[n+](Cc1ccc3ccccc3n1)cn2Cc1ccc2ccccc2n1"
  CAT: "active"
